Values compiled from ChEMBL document CHEMBL3351424.

- experimental.target: UniProt P24158
- Sequence (P24158 whole entry): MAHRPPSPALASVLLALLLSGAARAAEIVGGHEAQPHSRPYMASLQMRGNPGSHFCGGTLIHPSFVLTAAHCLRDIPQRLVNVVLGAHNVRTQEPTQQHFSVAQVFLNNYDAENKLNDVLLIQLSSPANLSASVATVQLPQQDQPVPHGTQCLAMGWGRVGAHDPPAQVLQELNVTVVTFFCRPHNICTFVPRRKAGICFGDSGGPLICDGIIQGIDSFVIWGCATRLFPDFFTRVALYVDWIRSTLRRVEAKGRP
quantity: IC50 (µM)

compound="O=S(=O)(F)Cc1ccccc1 [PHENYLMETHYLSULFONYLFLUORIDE]" quantity=IC50 reported=19.2
